The following compounds each carry a recorded IC50 for IRAK4 (Homo sapiens (Human), UniProt Q9NWZ3).

# example entries with known answers
> print(dat)
                                   compound  measurement
1  O=C(CCc1cn(-c2ccccc2)c(NC(=O)c2cncc(-c3cn[nH]c3)c2)n1)Nc1ccccc1 [Example 4]     > 100 nM
2  C[C@@H]1CCC[C@H](C)N1C(=O)CCc1cn(-c2ccccc2)c(NC(=O)c2cccc(-c3cn[nH]c3)c2)n1 [Example 32]      < 50 nM
3  COC[C@H]1CCCN1C(=O)CCCCCc1cn(-c2ccccc2)c(NC(=O)c2cccc(-c3cn[nH]c3)c2)n1 [Example 101]      < 50 nM
4  Cn1cc(-c2cccc(C(=O)Nc3nc(CCCC(=O)Nc4ccncc4)cn3-c3ccccc3)c2)cn1 [Example 150]      < 50 nM
5  Cn1cc(-c2cccc(C(=O)Nc3nc(CCCC(=O)N4CCC[C@H](N)C4)cn3-c3ccccc3)c2)cn1 [Example 211]      < 50 nM

Prompt line: Form field: IC50 recorded for COC[C@H]1CCCN1C(=O)CCCCc1cn(-c2ccccc2)c(NC(=O)c2cccc(-c3cn[nH]c3)c2)n1 [Example 87] with IRAK4 (Homo sapiens (Human), UniProt Q9NWZ3) (enter value)
Response line: < 50 nM

---

- TARGET: IRAK4 (Homo sapiens (Human))
- Sequence (Q9NWZ3 whole entry): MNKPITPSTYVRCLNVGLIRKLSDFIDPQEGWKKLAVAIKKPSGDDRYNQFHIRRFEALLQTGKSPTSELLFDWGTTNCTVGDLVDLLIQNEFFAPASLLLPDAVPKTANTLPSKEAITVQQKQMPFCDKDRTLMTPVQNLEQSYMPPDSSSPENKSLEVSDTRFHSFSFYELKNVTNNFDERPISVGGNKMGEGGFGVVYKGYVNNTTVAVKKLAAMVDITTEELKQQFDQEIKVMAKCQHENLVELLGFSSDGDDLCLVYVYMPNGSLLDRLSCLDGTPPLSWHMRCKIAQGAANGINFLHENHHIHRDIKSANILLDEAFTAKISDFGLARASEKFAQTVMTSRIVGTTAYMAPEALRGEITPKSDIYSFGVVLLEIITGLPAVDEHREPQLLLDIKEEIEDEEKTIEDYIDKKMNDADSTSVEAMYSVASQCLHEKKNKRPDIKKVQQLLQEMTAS
EXPERIMENTAL READOUT: IC50

Solved cases (4 shown):
> print(dat)
                                smiles.data  measurement
1  Cn1ncc2cc(-c3cccc(C(=O)Nc4nc(CCCCCCN5CCOCC5)cn4-c4ccccc4)c3)ccc21     > 100 nM
2  O=C(CCc1cn(Cc2ccccc2)c(NC(=O)c2cccc(-c3cn[nH]c3)c2)n1)Nc1ccccc1     > 100 nM
3  CN1CCN(CCCCc2cn(-c3ccccc3)c(NC(=O)c3cccc(-c4cnn(C)c4)c3)n2)CC1      < 50 nM
4  C[Si](C)(C)CCOCn1cc(-c2cccc(C(=O)Nc3nc(CCCC(=O)NC4CC4)cn3-c3ccccc3)c2)cn1     > 100 nM

Prompt line: I have this molecule here, CN(C(=O)CCCc1cn(-c2ccccc2)c(NC(=O)c2cccc(-c3cn[nH]c3)c2)n1)C1CC1 , and I need its recorded IC50.
Response line: < 50 nM

---

Target or system IRAK4 (Homo sapiens (Human)); recorded quantity pIC50.
pIC50: −log10 of the molar value.

Example entries begin here.
> print(dat)
                                   compound                        target  experimental.readout  measurement
1  O=C(Nc1nc(CCCCCC(=O)N2CCCCC2)cn1-c1ccccc1)c1cccc(-c2ccc3[nH]nnc3c2)c1 [Example 242]  IRAK4 (Homo sapiens (Human))                 pIC50       > 7.30
2  COC[C@@H]1CCCN1C(=O)CCCc1cn(-c2ccccc2)c(NC(=O)c2cccc(-c3cn[nH]c3)c2)n1 [Example 55]  IRAK4 (Homo sapiens (Human))                 pIC50       > 7.30
3  O=C(Nc1nc(CCCCCC[N+]2([O-])CCCCC2)cn1-c1ccccc1)c1cccc(-c2cn[nH]c2)c1 [Example 125]  IRAK4 (Homo sapiens (Human))                 pIC50       > 7.30

Prompt line: Field: pIC50 (IRAK4 (Homo sapiens (Human))). Entry: CN1CCN(C(=O)CCCCCc2cn(-c3ccccc3)c(NC(=O)c3cccc(-c4ccc5scnc5c4)c3)n2)CC1 [Example 288]
Response line: < 7.00

Prompt line: Entry C[C@@H]1CCC[C@H](C)N1C(=O)CCCCc1cn(-c2ccccc2)c(NC(=O)c2cccc(-c3cn[nH]c3)c2)n1 [Example 81] , system IRAK4 (Homo sapiens (Human)): what pIC50 was measured?
Response line: > 7.30

Prompt line: Lab note: need pIC50 with IRAK4 (Homo sapiens (Human)) for entry COC(=O)Cc1cn(-c2ccccc2)c(NC(=O)c2cccc(-c3cn[nH]c3)c2)n1 [Example 42] , please look it up.
Response line: 7.00 to 7.30

Prompt line: Any idea what pIC50 came out for Cn1cc(-c2cccc(C(=O)Nc3nc(CCCCN4CCCCC4)cn3-c3ccccc3)c2)cn1 [Example 219] on IRAK4 (Homo sapiens (Human))?
Response line: > 7.30

Prompt line: Recall the recorded pIC50 for CN1CCC(NC(=O)CCCc2cn(-c3ccccc3)c(NC(=O)c3cccc(-c4cnn(C)c4)c3)n2)CC1 [Example 148] with IRAK4 (Homo sapiens (Human)) and state it.
Response line: 7.00 to 7.30

The values you see were collected from patent US12534452B2.
